# EXPERIMENTAL SYSTEM: Plasmin (human) (Homo sapiens, UniProt P00747)
# Construct: from tissue; host or cells: Cohn fraction III (human plasma)
# Sequence (P00747 581-810 limits assumed): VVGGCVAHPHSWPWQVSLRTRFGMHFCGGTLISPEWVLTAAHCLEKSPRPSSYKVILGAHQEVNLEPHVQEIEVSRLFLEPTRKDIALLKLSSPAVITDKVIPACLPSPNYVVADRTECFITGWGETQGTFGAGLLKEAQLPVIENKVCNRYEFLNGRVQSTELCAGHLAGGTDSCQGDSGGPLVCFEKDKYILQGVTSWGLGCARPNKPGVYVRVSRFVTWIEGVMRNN
# Sequence (P00747 97-580 limits assumed): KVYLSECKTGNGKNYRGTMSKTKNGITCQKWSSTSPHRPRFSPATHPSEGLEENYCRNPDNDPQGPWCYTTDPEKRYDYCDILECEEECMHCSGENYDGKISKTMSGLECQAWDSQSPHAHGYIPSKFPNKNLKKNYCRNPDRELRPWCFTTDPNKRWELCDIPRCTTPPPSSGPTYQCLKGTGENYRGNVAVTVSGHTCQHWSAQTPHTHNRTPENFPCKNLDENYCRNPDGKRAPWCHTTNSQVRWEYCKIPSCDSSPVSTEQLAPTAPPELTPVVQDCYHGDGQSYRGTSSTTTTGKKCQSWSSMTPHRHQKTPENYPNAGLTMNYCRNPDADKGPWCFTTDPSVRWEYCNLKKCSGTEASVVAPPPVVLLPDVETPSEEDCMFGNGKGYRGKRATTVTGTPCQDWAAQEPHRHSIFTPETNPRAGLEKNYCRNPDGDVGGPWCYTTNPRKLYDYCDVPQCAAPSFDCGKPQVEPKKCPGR
# EXPERIMENT SUMMARY: Dixon plot competitive inhibition of esterase action of human plasmin
# Assay type: biochemical
# CONDITIONS: Dixon plots, pH 6.0; Ki (M) x 10^5; read-out: Inhibition constant Ki (M) x 10^5, Plasmin (human)
EXPERIMENTAL READOUT: Ki (M)

(A) N=C(N)c1ccc(CS(=O)(=O)Oc2ccc([N+](=O)[O-])cc2)cc1 [p-isomer]
(B) N=C(N)c1cccc(CS(=O)(=O)Oc2ccc([N+](=O)[O-])cc2)c1 [m-isomer]
[Q] Exercise: compare A and B ; which one has the greater Ki? Use the label to indicate which entry you chose.
[A] A
(A: 0.0005 M, B: 4.2e-05 M)

* * *

# EXPERIMENTAL SYSTEM: UniProtKB P00735
EXPERIMENTAL READOUT: pKi
Quick note: pKi values are minus log10 of concentrations in mol/L.

[Q] Form field: reported pKi of N=C(N)c1cccc(CS(=O)(=O)Oc2ccc([N+](=O)[O-])cc2)c1 [m-isomer]
[A] 3.38

* * *

# EXPERIMENTAL SYSTEM: α-Chymotrypsin (Bos taurus)
# Construct: α-Chymotrypsin
# EXPERIMENT SUMMARY: Dixon plot competitive inhibition of hydrolysis of benzyloxy-lysine-nitrophenyl ester by α-chymotrypsin
# Assay type: biochemical, bovine
# CONDITIONS: Dixon plots, pH 6.0; Ki (M) x 10^5; read-out: Inhibition constant Ki (M) x 10^5, α-Chymotrypsin
EXPERIMENTAL READOUT: Ki (M)

(A) N=C(N)c1ccc(CS(=O)(=O)Oc2ccc([N+](=O)[O-])cc2)cc1 [p-isomer]
(B) N=C(N)c1cccc(CS(=O)(=O)Oc2ccc([N+](=O)[O-])cc2)c1 [m-isomer]
[Q] Would you kindly point out which of A and B has the smaller Ki figure? Use the label to indicate which entry you chose.
[A] B

* * *

# EXPERIMENTAL SYSTEM: thrombin (Bos taurus)
# EXPERIMENT SUMMARY: presteady state kinetics of nitrophenol production by thrombin
EXPERIMENTAL READOUT: pKd
Quick note: pKd values are minus log10 of concentrations in mol/L.

[Q] Give thrombin (Bos taurus) pKd for N=C(N)c1ccc(CS(=O)(=O)Oc2ccc([N+](=O)[O-])cc2)cc1 [p-isomer]
[A] 3.92

* * *

# EXPERIMENTAL SYSTEM: Plasma kallikrein (human) (Homo sapiens)
# Construct: from tissue
# Sequence (P03952 391-638 limits assumed): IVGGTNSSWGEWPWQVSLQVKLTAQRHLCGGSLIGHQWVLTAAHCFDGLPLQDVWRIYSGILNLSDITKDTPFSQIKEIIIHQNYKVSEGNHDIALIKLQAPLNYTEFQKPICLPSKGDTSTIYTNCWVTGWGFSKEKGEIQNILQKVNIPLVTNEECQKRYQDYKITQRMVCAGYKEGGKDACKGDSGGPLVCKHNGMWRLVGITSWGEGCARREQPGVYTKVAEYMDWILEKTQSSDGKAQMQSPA
# Sequence (P03952 20-390 limits assumed): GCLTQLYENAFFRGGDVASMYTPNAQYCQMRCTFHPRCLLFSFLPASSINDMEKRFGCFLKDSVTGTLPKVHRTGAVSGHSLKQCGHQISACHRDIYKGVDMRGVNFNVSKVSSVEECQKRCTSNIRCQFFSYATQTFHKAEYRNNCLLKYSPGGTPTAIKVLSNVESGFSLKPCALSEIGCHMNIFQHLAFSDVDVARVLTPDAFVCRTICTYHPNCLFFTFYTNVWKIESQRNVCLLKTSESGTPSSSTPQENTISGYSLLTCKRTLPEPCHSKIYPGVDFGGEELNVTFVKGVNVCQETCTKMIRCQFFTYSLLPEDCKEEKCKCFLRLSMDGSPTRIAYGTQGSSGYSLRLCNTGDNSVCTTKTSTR
# EXPERIMENT SUMMARY: Dixon plot competitive inhibition of esterase action of human plasma kallikrein
# Assay type: biochemical
# CONDITIONS: Dixon plots, pH 6.0; Ki (M) x 10^5; read-out: Inhibition constant Ki (M) x 10^5, Plasma kallikrein (human)
# Procedure: In accordance with the present invention, nitrophenyl m- and p-amidinophenylmethanesulfonate were prepared, and these compounds were examined for their properties related to inhibition and inactivation of specific enzymes. […] Enzyme concentrations were determined by titration with nitrophenyl p-guanidinobenzoate in the case of trypsin, plasmin, and thrombin, whereas chymotrypsin molarity was based on weight. […] Optical density change at 340 nm was measured with double beam operation as described above. […]
EXPERIMENTAL READOUT: Ki (M)

(1) N=C(N)c1cccc(CS(=O)(=O)Oc2ccc([N+](=O)[O-])cc2)c1 [m-isomer]
(2) N=C(N)c1ccc(CS(=O)(=O)Oc2ccc([N+](=O)[O-])cc2)cc1 [p-isomer]
[Q] Exercise: compare 1 and 2 ; which one has the greater Ki? Use the label to indicate which entry you chose.
[A] 2

* * *

# EXPERIMENTAL SYSTEM: thrombin (Bos taurus, UniProt P00735)
# EXPERIMENT SUMMARY: presteady state kinetics of nitrophenol production by thrombin
# Procedure: In accordance with the present invention, nitrophenyl m- and p-amidinophenylmethanesulfonate were prepared, and these compounds were examined for their properties related to inhibition and inactivation of specific enzymes. With regard to the enzymes employed, bovine β-trypsin and thrombin were chromatographically purified by known procedures. Human plasminogen was purified from Cohn fraction III and activated with streptokinase. […]
EXPERIMENTAL READOUT: pKi
Quick note: pKi values are minus log10 of concentrations in mol/L.

[Q] Form field: reported pKi of N=C(N)c1ccc(CS(=O)(=O)Oc2ccc([N+](=O)[O-])cc2)cc1 [p-isomer]
[A] 3.92

* * *

# EXPERIMENTAL SYSTEM: Thrombin (human) (Homo sapiens)
# Construct: made in house
# EXPERIMENT SUMMARY: Dixon plot competitive inhibition of hydrolysis of benzyloxy-lysine-nitrophenyl ester by human thrombin
# Assay type: biochemical
# CONDITIONS: Dixon plots, pH 6.0; Ki (M) x 10^5; read-out: Inhibition constant Ki (M) x 10^5, Thrombin (human)
EXPERIMENTAL READOUT: Ki (M)
API: value field is a number in M; no unit string.

[Q] Form field: reported Ki of N=C(N)c1cccc(CS(=O)(=O)Oc2ccc([N+](=O)[O-])cc2)c1 [m-isomer]
[A] 5.3e-05
